Target: T1, human IFP35 protein (human, UniProt P80217 1-286, limits assumed)
T1 construct: also called interferon-induced protein 35; IFI35
T1 chain: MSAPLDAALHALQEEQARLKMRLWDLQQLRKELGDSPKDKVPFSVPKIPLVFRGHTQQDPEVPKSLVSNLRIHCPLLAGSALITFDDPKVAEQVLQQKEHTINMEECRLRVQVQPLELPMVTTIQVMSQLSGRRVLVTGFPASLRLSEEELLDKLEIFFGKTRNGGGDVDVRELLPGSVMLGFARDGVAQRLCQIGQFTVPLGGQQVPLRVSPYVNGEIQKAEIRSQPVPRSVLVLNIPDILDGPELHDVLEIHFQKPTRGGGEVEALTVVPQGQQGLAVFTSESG
Assay: ELISA (OD450) on antigen IFP35
MEASURED_METRIC: EC50 (read off the curve)

Challenge: Give its EC50 (read off the curve) value. Item: AE001-6 (antibody, human IgG1, V domains shown, Human IgG1; CDR mutant of AE001-H3+L3; also called AE001-6Hc + Lc; AE001-6HC + LC) VH: QVQLVQSGAEVKKPGASVKVSCKASGYTFTNYGMNWVRQAPGQGLEWMGWINTYTGEPTVAQKFQGRFTFTLDTSTSTAYLELSSLRNEDTAVYFCARYGYSWAMDYWGQGTSVTVSS VL: DIQMTQSPSSLSASVGDRVTITCQASSSVSYMHWYQQKPGKAPKRLIYDTSKLASGVPSRFSGSGSGTDYTLTISSLQPEDIATYYCQQWSPYPPITFGAGTKLEIK
Response given: ~0.1 mg/L

This collection of values is drawn from patent US12473352.
